Protocol text: Percent inhibition of CD58 and CD2 interaction in caco-2 and Jurkat cell adhesion assay at 90 uM
Type: functional
Experimental conditions: Homo sapiens
Where a SMILES comes first, the peptide text is derived from it. [ ]: non-standard residue; d: D form. The star is where a group is joined. Pen = CC(C)(S)[C@H](N)C(=O)O; Acm = CC(=O)NC*
Value kind: inhibition at 90 µM (%)
Give bare numbers, in %.

Field: example entries. Status: answers known.
Inquiry: Given `NCCCC[C@@H]1NC(=O)[C@@H](CCC(=O)O)NC(=O)[C@H](CCCCN)NC(=O)[C@@H](CCCN=C(N)N)NC(=O)[C@H](Cc2ccccc2)NC(=O)[C@@H](CCC(=O)O)NC1=O` , state its recorded inhibition at 90 µM.
Reply text: 25

Inquiry: Given `CC[C@H](C)[C@@H]1NC(=O)[C@@H](N)C(C)(C)SSC[C@@H](C(=O)O)NC(=O)[C@H](CC(C)C)NC(=O)[C@H](C(C)C)NC(=O)[C@H](CC(N)=O)NC(=O)[C@H](CCCCN)NC(=O)CNC(=O)[C@H](CCCCN)NC(=O)[C@H]([C@@H](C)O)NC(=O)[C@H](CC(=O)O)NC(=O)[C@H](Cc2ccc(O)cc2)NC1=O` , state its recorded inhibition at 90 µM.
Reply text: 50

---
Inquiry: Given CC(=O)NCSC[C@H](NC(=O)[C@H](Cc1ccccc1)NC(=O)[C@@H](NC(=O)[C@H](CCC(=O)O)NC(=O)[C@H](CCCCN)NC(=O)[C@H](CCC(=O)O)NC(=O)[C@H](CCCCN)NC(=O)[C@H](CCCN=C(N)N)NC(=O)[C@H](Cc1ccccc1)NC(=O)[C@H](CCC(N)=O)NC(=O)[C@H](C)NC(=O)[C@@H](N)C(C)(C)SCNC(C)=O)[C@@H](C)O)C(=O)O (H-[Pen](Acm)AQFRKEKETFC(Acm)-OH) , state its recorded inhibition at 90 µM.
Reply text: 25
